// reported interaction score for each item listed
Biological target: T1, 4H1878-AA
T1 chain: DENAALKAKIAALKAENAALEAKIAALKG
Assay: two-hybrid library CCmax;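 note: natural log of median RNA to DNA barcode read ratio; higher means stronger binding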
Conditions: mean of both orientations
ASSAY METRIC: interaction score

1) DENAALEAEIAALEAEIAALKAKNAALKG [4H1040-AA] : -0.752
2) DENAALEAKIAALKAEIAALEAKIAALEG [4H1349-AA] : -0.906
3) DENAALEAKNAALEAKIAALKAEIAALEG [4H1449-AA] : -1.34

// data source = paper PMC10397247
